Data origin: ChEMBL document CHEMBL1138243

# target_of_assay: Transthyretin (Homo sapiens, UniProt P02766)
# protocol_summary: Inhibition of transthyretin fibril formation at pH 4.4 at 50 uM
# Type: functional
# Design: scale not given: the % may be the effect or the level left
observed_property: Activity (%)
Write it as a number; the unit % goes unstated.

Ask: Give the measured Activity of O=Cc1ccc(Oc2ccccc2)c(O)c1 .
Result: 112

Ask: Which Activity is reported for this compound? COc1cc(CCl)ccc1Oc1ccc([N+](=O)[O-])cc1[N+](=O)[O-]
Result: 79

Ask: Bench note: what Activity did Oc1cc(CCl)ccc1Oc1ccc(Cl)cc1Cl show?
Result: 0

Ask: Using the record for O=Cc1ccc(Oc2ccc(Cl)cc2Cl)c(O)c1 , report its Activity.
Result: 0

Ask: // Activity lookup, key: COc1cc(COC(C)=O)ccc1Oc1ccc([N+](=O)[O-])cc1[N+](=O)[O-]
Result: 69

Ask: // Activity lookup, key: COc1cc(CCl)ccc1Oc1ccccc1
Result: 0

Ask: Looking for the measured Activity of O=C(O)c1ccc(Oc2ccccc2)c(O)c1 , can you help?
Result: 5

Ask: // lookup Activity for COc1cc(CCl)ccc1Oc1ccc(Cl)cc1Cl
Result: 0

Ask: # get_value(readout='Activity', item= COc1cc(C(=O)O)ccc1Oc1ccc(Cl)cc1Cl )
Result: 0
